- experiment description: yeast display, Sf9 membrane polyspecificity reagent, FACS + sequencing; frameworks hold sequencing errors
observable: polyreactivity (PSR sort gate)

Examples with their reported polyreactivity (PSR sort gate) follow.
| input sequence | polyreactivity (PSR sort gate) |
| --- | --- |
| QVQLVESGGGLVQAGGSLRLSCAASGSTFRSYVMGWYRQAPGKERELVARITFNGGGTSYADSVKGRFTISRDTAKNTVYLQMNSLKPEDTAVYYCAARGYGWPKLFNYWGQGTQVTVSS | high polyreactivity |
| QVQLVESGGGLVQAGGSLRLTCAASGRIFSRNAMGWYRQAPGKERELVAAISSSGGSTSYADSVKGRFTISRDNAKNTVYLQMNSLKPEDTAVYYCAADSYPAYLGFVGFDYWGQGTQVTVSS | low polyreactivity |
| QVQLQESGGGLVQAGGSLRLSCAASSNNSTLDVMGWYRQAPGKEREFVASIGSGGITNYADSVKGRFTISRDNAKNTVYLQMNSLKPEDTAVYYCAVLNQAYTDLIYWGQGTLVTVSS | high polyreactivity |
| QVQLVESGGGLVQAGGSLRLSCAASGSIFSYYTMGWYRQAPGQERELVAAISRRGGRTYYADSVKGRFTISRDNAKNTVYLQMNSLKPEDTAVYYCAAEWAGWNNEMDYWGQVTQVTVSS | high polyreactivity |

Now for a further sequence.
Item QVQIVESGAGLVHAGGSLRISCAASGRIFWIYAMGWYRQAPGKESELVATITGSGGSTYYADSVKGRFTISRDNAKKTVYLQMNSLKPEVTAVYYCAARYPVSGGYDYWGQGTQVTLSS has what recorded polyreactivity (PSR sort gate)?
low polyreactivity

====

- experiment description: yeast display, Sf9 membrane polyspecificity reagent, FACS + sequencing; frameworks hold sequencing errors
observable: polyreactivity (PSR sort gate)

Here is how some sequences turned out for polyreactivity (PSR sort gate).
| input sequence | polyreactivity (PSR sort gate) |
| --- | --- |
| QVHLVESGGGLVQAGGSLRLSCAASGSTFATNAMGWYRQAPGIERELVAAITDGGSTNYADSVKGRFTISRDNAKNTVYLQMNSLKPEDTAVYYCAADGFKTVLPEYDYWGQGTQVTVSS | low polyreactivity |
| QVQLVESVGGLVQAGCSLRLSCAASGSIIRTNTMGWYRQAPGKEREFVAAISRSGGSTYYADSVKGRFTISRDNAKNTVYLQMNSLKPEDTAGYYCNARWGLGSYGYWGQGTQVTVSS | high polyreactivity |
| QEQLQESGGGLVQAGGSLRLSCAASGTISYAGPMGWYRQAPGKEREFVAGIGVGSNTNYADSVKGRYTIIRDNAKNTVYLQMNSLKPEDTAVYYCAVGGYAPLGRPYWGQGTQVTVSS | low polyreactivity |
| QVQLVESGAGLVQAGGSLRLSCAASGRTFSGYAMGGYRQAPGKERELVAAISWRGGRTYYADSVKGRFTISRDNAKNTVYLLMYSLKPEDTAVYYCNTVGHVYYGEFDYWGQGTQVTVSS | high polyreactivity |

Field: next sequence
polyreactivity (PSR sort gate) lookup needed for QVQLVESGGGLVQAGGSLRLSCAASGRIFRYNAMVWYRQAPGKERELVAAITWSGTSTYYADSLKGRFTLSRDNAKNTVYLHMNSLKPEDTAVYYCNADRVDRELFTFDYWGQGTQVTVSS , thanks.
high polyreactivity

====

- experiment description: yeast display, Sf9 membrane polyspecificity reagent, FACS + sequencing; frameworks hold sequencing errors
observable: polyreactivity (PSR sort gate)

Worked cases, polyreactivity (PSR sort gate) given:
| input sequence | polyreactivity (PSR sort gate) |
| --- | --- |
| QVQLVESGGGLVQAGGSLRLSCAASGNIFESYGMGGYRQAPGKERELVAAISFSGDSTYYADSVKGRFTISRDNAKNSVYLQMNSLKPEDTAVYYCATDVGYVYGYYYWGQGTQVTVSS | low polyreactivity |
| QVQLVESGGGLVQAGGSLRLSCADSGFTFPSYTMGWYRQAPGKERDLDASIRVSGGRTYYADSVKGRFTISRDNAKNTVYLQMNSLKPEDTAVYYCAADYMTWWGGRYDYWGQGTQVTVSS | high polyreactivity |
| QVQLVESGGRLVQAGGSLRLSCAASGSIFNAYAMGWYRQAPGKEREFVAVITSNGGITYYADSVKGRFTISRDNAKNTVYLQMNSLKPEDTAVYYCAAYEIYYEFDSWGQGTQVTVSS | low polyreactivity |
| QVQLVESGGGLVQAGGSLRLSCAASGIILDHYAMGWYRQAPGKERELVAAISSGTRTNYADSVKGRFTISRDNAKNTVYLQMNSLKPEDTAVYYCAATIYRRYRSKSSITSYWGQGTQVTVSS | high polyreactivity |
| QVQLVESGGGLVQAGGSLRLSCAASGSIFWLYAMGWYRQAPGKERELVAAITWSGGRTYYADSVKGRFTISRDNAKNTVYLQMNSLKPEDTAVYYCARRQWPWYSNPARGGKYDYWGQGTQVTVSS | low polyreactivity |
| QVQLVESGGGLVQAGGSLRLSCAASGRTFQWYTMGWYRQAPGKERELVAGISWRGGSTYYADSVKGRFTISRDNAKNTVYLQMNSLKPEDTAVYYCAALASRLTGRDYWGQGTQVTVSS | high polyreactivity |
| QVQLVESGGGLVQAGGSIRLSCAASGSTFPGNAMGWYRQAPGKERELVASISGGGDSTYYADSVKGRFTISRDNAKNTVYLQMNSLKPEDTAVYYCAADTQGSVRPGYDYWGQGTQVTVSS | low polyreactivity |
| QVQLVESVGGLVQAGGSLPLSCAASGFTFSDYAMGWYRQAPGKESELVAGISSGGYTNYADSVKGRFTISRDNAKNTVYLQMNSLKPEDTAVYYCAAAYYSKFGYWGKGTQVTVSS | high polyreactivity |

Recorded polyreactivity (PSR sort gate) of QVQLVESGGGLVQPGGTLRLTCAGSGSILTGNAMRWYRQAPGKERELVAAITSGGSTYYADSVKGRFTISRDNAKNTVYLQMNSLNQADSAGYYCAASRWRPLERGTTWLHDYWGQGTQVTVSS , please.
low polyreactivity

For the sequence QVQLVESGGGLVQAGASLRLSCAASGRTFVGYAMGWYRQAPGKERELVAAISKSSGSTYYADSVKVRFTISRDNAKNTVYLQMNSLKPEDTAVYYCNAARRQCNRYTYDYWGQGTLVTVSS , what polyreactivity (PSR sort gate) is on record?
high polyreactivity

Request the reported polyreactivity (PSR sort gate) associated with QVQLVESGGGLVQAGGSLRLSCAASGSIFAYNAMGWYRQAPGKERELVAGISSRGGRTYYADSVKGRFTISRDNAKNTVYLQKNSLKPEDTAVYNCNKRSVPGTYYPTPVRYKYDYWGQGTQVTVSS
high polyreactivity

====

- experiment description: yeast display, Sf9 membrane polyspecificity reagent, FACS + sequencing; frameworks hold sequencing errors
observable: polyreactivity (PSR sort gate)

| input sequence | polyreactivity (PSR sort gate) |
| --- | --- |
| QVQLVESGGRLVQAGGSLRLSCASSGRTFYPYVMGWYRQAPGKERELVAAISSGTSTYYADSVKGRFTISRDNAKNTVYLQMNSLKPEDTAVYYCAVRVYTYVLYDFWGQGTQVTVSS | high polyreactivity |
| QVQLVESGGGLVQAGGSLRLSCAASVSIFGYYAMGWYRPAPGKEMELVAAISSGGNTNYADSVKGRFTISRDNAKNTVYLQMISLKQEDTAVYYCATRARYKRIRYDYWGQGTQVTVSS | high polyreactivity |
| QVQLLESGGGLVHAGGSLRLSCAASGRIFLGNAMGWYIQAPRKERELVASISRGGGTTYYADSVKGRITISRDNAKNTVYLQMNRLKPEDTAVYYCAARVYYVVQHGKYVYWGQGTQVTVSS | high polyreactivity |
| QVQLLESGGGIVQAGGSLRLSCAASGSIFRYYAMGWYRQAPGKEREFVASITYRGGRTYYADSVKGRFTISRDNAKNTVYLQMNSLKPEDTAVYYCAARTRAGAWTSKYHDYWGQGTQVTVSS | high polyreactivity |
| QVQLVESGRGFVQAGGRLRLSCAASGRTFGRYTMGWYRQAPGKDRELVASISNTARTNYADSVKGRFTISRDNAKNTVYLQMNSLKPEDTAVYYCAATYIVRYGYWGQGTQVTVSS | low polyreactivity |
| QVQLVESGGGLVQAGGSHRLSCDASGRTFYRNAMGWYRQAPGKERELVAGISSRGGSTYYADSVKGRFTISRDNAKNTVYLQMISLKPEDTAVYYCAATSSPYSIYNSWGQGTQVTVSS | high polyreactivity |
| QVQLEESGGGLVHAGGILRLSCAASGYTFYYNAMGWYRQAPGKERELVAAISRSRDTTYYADSVKGRFTISRDNAKYTVYLQMYSLKPEDTEVYYCNAVVQVLADFQKYDYWGQGSQVTVSS | low polyreactivity |
| QVQLQESGGGLVQVGGSLRLSCAASGTIFIYGFLGWNRQAPGKERELVASINLGGITNYADSVKGRFTISRDNATNTVYLQMISLKPEDTAVYYCAAYVVTGQNYGYWGQGTQVTVSS | low polyreactivity |

For QVQLVESGGGLVQAGGSLRLSCAASGLIFQVYDMGWYRQAPGKERELVAAISSGSNTNYADSVKGRFTISRDNAKNTVYLQMNSLKPEDTAVYYCAASLGYGAMTPDMGYWGQVTQVTVSS , what is its reported polyreactivity (PSR sort gate)?
low polyreactivity

Can you look up the measured polyreactivity (PSR sort gate) of QVQLVESGGGLVQAGGSLRLSCAASGSIFRVYTMGWYIQAPGKERELVAAISRSGGRTYYADSVKGRFTISRDNAKNTVYLQMNSLKPEDTAVYYCAARSSLYRAGYRYNSWGQGTQVTVSS for me?
high polyreactivity

Report polyreactivity (PSR sort gate) for QVQLVESGGGLVQAGGSLRLSCAASGITFRRYVMGWYRQAPGKERELVARISSDGSTSYADSVKGRFTISRNNAKNTVYLQMNSLKPEDTAVYYCAAVHQWYVRYSTGYNYWGQGTQVTVSS please.
high polyreactivity
